target: Serine/threonine-protein kinase PLK1 (Homo sapiens) (UniProt P53350); assay: qHTS for Inhibitors of PLK1-PDB (polo-like kinase 1 - polo-box domain): Primary Screen; details: Plk1 PBD binding of FITC phosphopeptide, fluorescence polarization; note: series mostly up to about 57 µM; % is set by controls: 0 for no effect and ±100 for the full control effect; nearly all actives have a fitted effect of over 65% in size
Sequence (P53350 whole entry, looked up, the tested form may be a part): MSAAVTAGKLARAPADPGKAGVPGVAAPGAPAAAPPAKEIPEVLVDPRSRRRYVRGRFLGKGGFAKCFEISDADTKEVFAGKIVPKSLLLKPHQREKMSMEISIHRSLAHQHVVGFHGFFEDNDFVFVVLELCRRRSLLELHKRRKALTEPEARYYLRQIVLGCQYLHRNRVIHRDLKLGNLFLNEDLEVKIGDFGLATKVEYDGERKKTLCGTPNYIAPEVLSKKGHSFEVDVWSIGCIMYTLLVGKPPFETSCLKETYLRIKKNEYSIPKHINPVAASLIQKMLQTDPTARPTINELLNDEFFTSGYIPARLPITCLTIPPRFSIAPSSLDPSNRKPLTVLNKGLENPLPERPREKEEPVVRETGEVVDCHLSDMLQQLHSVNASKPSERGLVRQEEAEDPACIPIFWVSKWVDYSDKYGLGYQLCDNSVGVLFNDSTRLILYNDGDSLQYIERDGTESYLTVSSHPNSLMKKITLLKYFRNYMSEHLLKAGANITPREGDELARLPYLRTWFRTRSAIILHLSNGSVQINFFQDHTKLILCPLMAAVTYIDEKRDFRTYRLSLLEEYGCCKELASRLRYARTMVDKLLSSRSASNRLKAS
Screen size: about 360,000 compounds; about 10,000 (2.8%) were called active. Not shown: some 4% with an inconclusive outcome. For the sample, actives were picked, then their nearest neighbours and some compounds at random.
Can you tell me max response, negative = inhibition for the items I'm about to list?
Give bare numbers, in %.

Some entries whose results are on file:
[
  {
    "molecule": "COc1cccc(-n2c(=S)sc3c(=O)n(-c4ccccc4C)c(SCC(=O)O)nc32)c1",
    "targetEntity": "Serine/threonine-protein kinase PLK1 (Homo sapiens) (UniProt P53350)",
    "max response, negative = inhibition [%]": -8.81
  },
  {
    "molecule": "Clc1cccc(Cc2c(-c3cccc(Cl)c3)nc3ccc(Cl)cn23)c1",
    "targetEntity": "Serine/threonine-protein kinase PLK1 (Homo sapiens) (UniProt P53350)",
    "max response, negative = inhibition [%]": -13.7
  }
]

Hi there! I need max response, negative = inhibition for each item below, if you can.
1. CCOC(=O)[C@]12CCC=C1N(CCC1=CCCCC1)C(=O)[C@H](CC(=O)NCc1ccc(C)o1)C2
2. CC1=C(C(=O)N(C)C)CC(CC(=O)NCCc2ccccn2)C(=O)N1CCC1=CCCCC1 (stereo not given)
3. COC(=O)c1ccc2nc(C3CCCCC3)c(Cc3cccc(F)c3)n2c1
4. Cn1ncc([N+](=O)[O-])c1C(=O)Nc1cc(Cl)ccc1Cl
5. O=C(N[C@H]1CC[C@H](CC(=O)N2CCCCC2)O[C@@H]1CO)c1cccc(F)c1
6. COc1ccc(OCc2ccc(-c3nc4ccccc4c(=O)n3N)o2)cc1
7. CCN1/C(=C\c2ccc3ccccc3[n+]2CC)Sc2cc(C)ccc21

**Result**
1: -24.8; 2: -5.19; 3: -6.81; 4: -6.39; 5: 6.09; 6: 2.15; 7: 18.1

**Query** Please provide the recorded max response, negative = inhibition for COc1ccc(C(NC(=O)C2CCN(CCCc3ccccc3)CC2)c2cccs2)cc1 (stereo not given) , tested on Serine/threonine-protein kinase PLK1 (Homo sapiens) (UniProt P53350).
**Result** -15.3
